- target.of.assay: H3.3/H4 (human | X. laevis, UniProt P84243 1-136; P62799 1-103)
- assay.summary: FP
result.type: pIC50
Please treat pIC50 as minus the base-10 logarithm of the molar concentration.

// query Query: pIC50; subject: IQDLIDMGYGYDESDSFIDNSEAYDEL [UBN1(122–148) peptide]
// result 4.33
